Where do the numbers come from? From ChEMBL document CHEMBL1127427.

assay explanation: Compound was evaluated for first order half-life in liver homogenate.
Format: ADME, tissue-based

{"columns": ["smi", "half-life"],
 "data": [
  ["C[C@]12CC[C@@H]3c4ccc(O)cc4CC[C@H]3[C@@H]1CC[C@@H]2OC(=O)C1=CN(CC2CC2)C=CC1", "38 min"],
  ["CN1C=CCC(C(=O)O[C@H]2CC[C@H]3[C@@H]4CCc5cc(O)ccc5[C@H]4CC[C@]23C)=C1", "32 min"],
  ["CC(C)N1C=CCC(C(=O)O[C@H]2CC[C@H]3[C@@H]4CCc5cc(O)ccc5[C@H]4CC[C@]23C)=C1", "26 min"],
  ["CCN1C=CCC(C(=O)O[C@H]2CC[C@H]3[C@@H]4CCc5cc(O)ccc5[C@H]4CC[C@]23C)=C1", "22 min"],
  ["C[C@]12CC[C@@H]3c4ccc(O)cc4CC[C@H]3[C@@H]1CC[C@@H]2OC(=O)C1=CN(Cc2ccccc2)C=CC1", "79 min"],
  ["C[C@]12CC[C@@H]3c4ccc(O)cc4CC[C@H]3[C@@H]1CC[C@@H]2OC(=O)C1=CN(CCCO)C=CC1", "29 min"],
  ["CCCCCCN1C=CCC(C(=O)O[C@H]2CC[C@H]3[C@@H]4CCc5cc(O)ccc5[C@H]4CC[C@]23C)=C1", "56 min"],
  ["CCCN1C=CCC(C(=O)O[C@H]2CC[C@H]3[C@@H]4CCc5cc(O)ccc5[C@H]4CC[C@]23C)=C1", "52 min"]
]}
